System: SF-268 CNS
EXPERIMENTAL_PROTOCOL: NCI-60 one-dose screen, 48 h (100 = growth as untreated, 0 = no growth, -100 = all killed)
MEASUREMENT_SETUP: 10 µM unless noted
The panel holds about 83,000 compounds, 20% with a hit somewhere; the sample as a whole holds those more often.
METRIC_NAME: growth (%)
Numbers only, in %.

- COMPOUND: "CN1C(=O)N(C)C2(c3ccccc3)N(CC(=O)Nc3ccccc3O)C(=O)NC12c1ccccc1 (centres undefined)"
  UNIT_INFO: "%"
  MEAS_VALUE: 96.5

Give growth for each of the items listed below.
1. COc1ccc(Oc2nc(Nc3ccc(N4CCOCC4)cc3)ncc2NC(=O)c2cccc(C(F)(F)F)c2)cc1
2. CC1(Cc2ccccc2)CC2=C(C(=O)O1)C(c1ccccc1)NC(=O)N2 (centres undefined)
3. COc1ccc(Cn2cc(C(=O)Nc3cccnc3Nc3ccccc3)nn2)cc1
4. COc1ccc2c(c1)c(C(=O)c1nc(-c3cn(C)c4ccccc34)no1)cn2C
5. COc1ccc2c(c1)c(-c1nc(-c3c[nH]c4c(Cl)nccc34)cs1)cn2C

output:
[89.5, 110, 96, 103, 111]

Give growth for each of the items listed below.
1. C[C@@H]1CC[C@@H]2[C@@H]1[C@H](OC(=O)/C=C/c1ccccc1)[C@]1(c3ccccc3)C[C@@H](NC(=O)CO)[C@@]2(C)O1
2. O=C(Cn1cc(CN2CCN(c3ccnc4cc(Cl)ccc34)CC2)nn1)Nc1cccc([N+](=O)[O-])c1
3. Nc1ccc(-c2nc3ccc4[nH]ncc4c3c3c2CCCC3)cc1F
4. O=C(N=Nc1c(O)[nH]c2ccccc12)Nc1ccc(Br)cc1
5. Cc1ccc(S(=O)(=O)OC[C@@]2(C)CC[C@]3(C)CC[C@]4(C)C(=CC[C@@H]5[C@@]6(C)CCCNC(C)(C)[C@@H]6CC[C@]54C)[C@@H]3C2)cc1
6. O=C(CN1C(=O)S/C(=C\C(Cl)=C\c2ccccc2)C1=O)NCCCn1ccnc1
7. CCOC(=O)C(=Cc1ccc(C#N)cc1)C(=O)OCC
8. COc1ccc(Nc2nn3c(SCC(=O)c4ccc(C)cc4)nnc3s2)cc1

output:
93.6
84.6
39.9
86.2
-55.2
86.7
28.1
100

Give growth for each of the items listed below.
1. COc1cc(/C=N/NC(=O)CCN2c3ccccc3Sc3ccccc32)cc(OC)c1OC
2. Cn1cc(C2=C(c3cccc4ccccc34)C(=O)NC2=O)c2cc(Br)ccc21
3. COc1ccc(C/C(C)=C(/c2ccc(OCCN3CCCCCC3)cc2)c2ccc(OC(=O)c3ccccc3)cc2)cc1
4. COc1cc(F)c(/C=C/c2cc(/C=C/c3cc(OC)c(OC)cc3F)n(-c3cc(F)cc(F)c3)n2)cc1OC
5. CCCCC1COc2cccc3c2N1C=C/C3=C\C(=O)N(C)c1cccc(Cl)c1 (centres undefined)

output:
93.8
102
106
34
97.9

---

System: NCI-H226 lung
EXPERIMENTAL_PROTOCOL: NCI-60 one-dose screen, 48 h
MEASUREMENT_SETUP: 10 µM unless noted
This is part of a sample that, as a whole, favours compounds with a hit. Of some 83,000 tested, about 20% had one in any assay. Active and inactive are the calls of the source. The calls were made as follows: active = growth percent below 10; inactive = the rest.
Outcomes you can answer with include only these: YES = active, NO = inactive

Previously resolved entries follow.
- COMPOUND: "CCNC(=O)Oc1ccc(/C(=C(/C)Cc2ccc(OC)cc2)c2ccc(OCCN(CC)CC)cc2)cc1"
  EXPERIMENTAL_SYSTEM: "NCI-H226 lung"
  CLASS_LABEL: "NO"
- COMPOUND: "CCCCC1=C(Br)C(=O)c2nc(C)ccc2C1=O"
  EXPERIMENTAL_SYSTEM: "NCI-H226 lung"
  CLASS_LABEL: "NO"
- COMPOUND: "[Cu+].[NH-][C@H]1C[N-]C(=O)[C@H]([C@H]2CCN=C(N)N2)[N-]C(=O)/C(=C\\NC(N)=O)[N-]C(=O)[C@H](CNC(=O)C[C@@H](N)CCCN)[N-]C(=O)[C@H](CO)[N-]C1=O"
  EXPERIMENTAL_SYSTEM: "NCI-H226 lung"
  CLASS_LABEL: "NO"
- COMPOUND: "COc1ccc2c(c1)c(-c1nc(-c3c[nH]c4c(Cl)nccc34)cs1)cn2C"
  EXPERIMENTAL_SYSTEM: "NCI-H226 lung"
  CLASS_LABEL: "NO"
- COMPOUND: "N#Cc1ccccc1-c1ccc(Cn2c(-c3cscn3)nc3c(Cl)cccc32)cc1"
  EXPERIMENTAL_SYSTEM: "NCI-H226 lung"
  CLASS_LABEL: "NO"

input: So what was the verdict on Cc1ccc(NC(=O)N/C(N)=N/c2nc(=O)c3ccccc3s2)cc1 in this test?
output: NO

input: Input Cc1cc(N2CCCCC2)nc(NCc2cc(Nc3ccnc4cc(Cl)ccc34)ccc2F)n1
output: NO

input: Input [2H]C([2H])([2H])Oc1cccc(/C=C/C(=O)/C=C(/C=C/c2cccc(OC([2H])([2H])[2H])c2OC([2H])([2H])[2H])OB(F)F)c1OC([2H])([2H])[2H]
output: NO

input: Input O=C(CCCOc1ccc(Br)cc1)Nc1ncc(Cc2ccc(F)cc2)s1
output: NO

input: Input O=C1/C(=C/c2ccc(-c3ccccc3C(F)(F)F)o2)SC(=S)N1CCc1ccc(O)cc1
output: NO

input: Input CCN(CC)/C([O-])=c1\cccc\c1=C1\N=C(c2ccccc2)N=C1[n+]1ccc(-c2ccccc2)cc1
output: NO

input: Input CN1CCN(CCNC(=O)c2cccc(CN3c4cccc5c4C(=Cc4cccnc43)N(C)C5=O)c2)CC1
output: NO

input: Input O=C1OCC2=C1C(c1cccc([N+](=O)[O-])c1)c1cc3c(cc1N2CCO)CCC3 (stereo not drawn)
output: NO

input: Input O=[N+]([O-])c1cc(C(F)(F)F)ccc1Sc1ccc(C(F)(F)F)cc1[N+](=O)[O-]
output: NO

input: Input CC(=O)N1N=C(c2ccc(Nc3nc(Nc4ccc(F)cc4)nc(Nc4ccc(Cl)cc4)n3)cc2)CC1c1ccc(N(C)C)cc1 (stereo not drawn)
output: NO

input: Input Cn1cc(C2=C(c3cccc4ccccc34)C(=O)NC2=O)c2cc(Br)ccc21
output: NO

input: Input Cc1ccc(C(=O)Nc2nc3c(s2)CN(Cc2ccccc2)CC3)cn1
output: NO

input: Input COc1ccc(-c2nc(Cl)c3c(C)nn(-c4ccc(F)cc4)c3n2)cc1
output: NO

input: Input Cc1ccc(-c2nc(SCC(=O)c3ccc(C#N)cc3)[nH]c(=O)c2C#N)cc1
output: NO

---

For each record, write down the corresponding growth.
Test system: COLO 205 colon
EXPERIMENTAL_PROTOCOL: NCI-60 one-dose screen, 48 h (100 = growth as untreated, 0 = no growth, -100 = all killed)
MEASUREMENT_SETUP: 10 µM unless noted
Compounds without any hit were thinned out: in the full panel of roughly 83,000, 20% have a hit.
Answers are plain numbers, in %.

Answered cases to consult:
- COMPOUND: "CN(C)CCCn1c2nc(=O)[nH]c(=O)c-2nc2cc(Cl)c(Cl)cc21"
  UNIT_INFO: "%"
  MEAS_VALUE: 4.28
- COMPOUND: "NC(=O)c1c(NC(=O)/C=C/c2cccs2)sc2c1CCC(=O)C2"
  UNIT_INFO: "%"
  MEAS_VALUE: 55.5
- COMPOUND: "Nc1nc(Nc2cccnc2)sc1C(=O)c1ccccc1F"
  UNIT_INFO: "%"
  MEAS_VALUE: 20.5
- COMPOUND: "COc1ccc(-c2cc(=O)c3c(O)cc(O)cc3o2)cc1"
  UNIT_INFO: "%"
  MEAS_VALUE: 101
- COMPOUND: "C=C(CN1CC=CCC1)[C@@H]1CC[C@]2(COC(C)=O)CC[C@]3(C)[C@H](CC[C@@H]4[C@@]5(C)CC[C@H](O)C(C)(C)[C@@H]5CC[C@]43C)[C@@H]12"
  UNIT_INFO: "%"
  MEAS_VALUE: 105
- COMPOUND: "Nc1nc(N)c2c(n1)NC(c1ccc(Cl)cc1)CC(c1cccc(Nc3ccncc3)c1)=N2 (centres undefined)"
  UNIT_INFO: "%"
  MEAS_VALUE: 50.5

Give growth for each of the items listed below.
1. C[N+]1=C(/C=C\C=C\c2ccccc2)C(C)(C)c2ccccc21
2. Clc1ccc(Nc2nc(Nc3ccc(Cl)cc3)nc(Nc3ccc(-c4cc(-c5cccc(Cl)c5)on4)cc3)n2)cc1
3. CCOC(=O)C(=Cc1ccc(C#N)cc1)C(=O)OCC

output:
[-43.4, 90.9, 4.69]

---

For each record, write down the corresponding growth.
Tested on: OVCAR-8 ovarian
EXPERIMENTAL_PROTOCOL: NCI-60 one-dose screen, 48 h (100 = growth as untreated, 0 = no growth, -100 = all killed)
MEASUREMENT_SETUP: 10 µM unless noted
Description: Growth inhibition of the OVCAR-8 human tumor cell line is measured as a screen for anti-cancer activity. Cells are grown in 96 well plates and exposed to the test compound for 48 hours. Compounds are tested at a single concentration, which is 10^-5 M for most compounds. The reported endpoint is percent growth (GI% or GIPRCNT), where numbers from 0 - 100% represent growth inhibition, and numbers from -100% - 0 represent cell death. For example, a value of 40 represents 60% growth inhibition. […]
About 83,000 compounds went through this panel and 20% of them were active in at least one assay; those are over-represented in the sample as a whole.
Numbers only, in %.

Give growth for each of the items listed below.
1. NC(N)=NC(N)=NCCCc1ccco1
2. Nc1nc2ccccc2c2c(=O)c3ccc(Cl)cc3sc12
3. N=C(N)SCc1c2ccccc2c(CSC(=N)N)c2ccccc12
4. COCCn1cc(-c2csc(-c3cn(C)c4ccc(F)cc34)n2)c2cccnc21
5. COc1ccccc1/C=C1\COc2ccc(O)cc2C1=O
6. Cn1ccnc1CN1CCSC(C(=O)Nc2ccccc2)C1 (stereo not drawn)
7. c1ccc(Cc2cccc[n+]2C(c2ccccc2)c2ccccc2)cc1
8. O=C(Nc1ccc2ccccc2c1)c1cc2ccccc2cc1O

output:
1. 96
2. 103
3. 60.7
4. 71.3
5. 49.4
6. 95.5
7. 57.2
8. 102

Give growth for each of the items listed below.
1. O=C(/C=C/c1ccc(F)cc1)Nc1ncc(Cc2ccc(F)cc2)s1
2. O=C(/C=C/c1cccs1)Nc1ncc(Cc2ccc(Cl)c(Cl)c2)s1
3. COc1ccc(-c2[nH]c3ccccc3c2-c2ccc(OC)cc2)cc1
4. CN1CCN(CCNC(=O)c2cccc(CN3c4cccc5c4C(=Cc4cccnc43)N(C)C5=O)c2)CC1
5. O=S(=O)(Nc1cc(Sc2cccc3cccnc23)c(O)c2ccccc12)c1ccc(F)cc1
6. COCCn1cc(-c2nc(-c3cn(CCOC)c4ncccc34)cs2)c2ccccc21

output:
1. 51.9
2. 72.7
3. 86.1
4. 40.8
5. 5.74
6. 97.7

Give growth for each of the items listed below.
1. O=C(N=Nc1c(O)[nH]c2ccccc12)Nc1ccc(Br)cc1
2. CCCn1nc(C(=O)N2CCCCC2)c2c1CCC(N1CCC(c3ccncc3)CC1)C2 (stereo not drawn)
3. O=C(c1cccc(Br)c1)N1CCN(c2ccnc3cc(Cl)ccc23)CC1
4. C[C@]12CCc3c(ccc4cc(O)ccc34)[C@@H]1C[C@H](O)[C@@H]2O
5. Cn1cc(-c2nc3c(F)cc4[nH]ncc4c3c3c2CCCC3)c(C(F)F)n1
6. Cc1n(Cc2ccc3ccccc3c2)c(Cl)c(Cl)[n+]1Cc1ccc2ccccc2c1
7. c1ccc(-c2cc(-c3cc(-c4ccccc4)on3)no2)cc1

output:
1. 98.9
2. 98.3
3. 80.2
4. 94
5. 73
6. 19.1
7. 74.6

Give growth for each of the items listed below.
1. COc1ccc(-c2cc(-c3cccc(Cl)c3)c(C#N)c(=O)[nH]2)c(OC)c1
2. CN1CCCc2cc(/C=C3\SC(=S)N(C(Cc4ccc(O)cc4)C(=O)O)C3=O)ccc21 (stereo not drawn)
3. CCOC(=O)c1cnn(-c2ccc(S(N)(=O)=O)cc2)c1N

output:
1. 94.4
2. 99.2
3. 102
